Hello, the source for this data is the supplement of paper PMC12764529, in case you need it.

assay: folding stability dG unfold from trypsin proteolysis; higher = more stable
Would you please tag the item satisfied when its folding stability dG unfold is 2 kcal/mol or above, and not satisfied when it is below?

Residue Sequence: SAGGSAGGSAGLPEEIADFVKEILEKAFPNVKVLEVEVEELPEGFYVVRARFEDGSEVEFPISAGGSAGGSA [r18_423_TrMRF]
Label Class: satisfied

Residue Sequence: SAGGSAGGSAGKMKIRVKIKRKDGKTLVIEGMSLEEIKELAEKEGFEIEKVEVVEVEPEESAGGSAGGSAGG [r11_283_TrROS_Hall]
Label Class: satisfied

Residue Sequence: SKPETVTFPFNIPLKDMPLEDIKEEAKEWLRNFGYKVEKPEITPEMLKLLKDMPPGQEIPITITIKVEPKSA [r9_1163_TrROS]
Label Class: not satisfied

Residue Sequence: SAMIKVVLPGAKLEKVEVFPDKTVKAVFVAKDHLVEIYFDPETGKALIRVYDGEKEYEFVLDVHPDDVISAG [r14_218_TrMRF]
Label Class: satisfied

Residue Sequence: SAGGSAGGNKIWIPITITFMVPVRKDPDGKPKLSPEDPDRWKPVEFEIPIEIDPDPDNGKIKIWSAGGSAGG [r6_537_TrROS]
Label Class: not satisfied

Residue Sequence: SAGEKEVIEIEVRVTVVRRLPEDLSEEQRKALEDELEVEEVTVRVRFDLDTGRIYVEFEDGSRLEFELPSAG [r5_701_TrROS_Hall]
Label Class: satisfied

Residue Sequence: SAGGSAGGSAGMVIEVGGKKVTIEKNEDGSLKITVTDKNGKKKEITIPGMSLEEILKALKSAGGSAGGSAGG [r11_934_TrROS_Hall]
Label Class: satisfied

Residue Sequence: SPNLKPVEFPIKIPGYKIRRVSIWKSPDGPVEIFVRFPDGWYYEFEIPPNGDIQPMKITEAVPPDEDKKNSA [r9_1075_TrROS]
Label Class: not satisfied

Residue Sequence: SAGGSAGGSMIEVVKFPNGITLEYFPETNTYRAFNPSTNTTTTFPPGVSFEEAVEAVKKGNLVSAGGSAGGS [r12_832_JUSTAS]
Label Class: satisfied

Residue Sequence: SAGGSWIPVEEIAENFPNVEVNTHPNGNIMVRFTHKRKKPNGGKKKHNMTVQLDPEDGRLQSIHPYSAGGSA [r2_104_TrROS]
Label Class: not satisfied

Residue Sequence: SAGGSAGGSMRIKTIKVIPQDDGMYSINITFPGVEREIPIPPQMPPDQITEIEIPIYFDGEPPSAGGSAGGS [r12_673_TrROS]
Label Class: not satisfied

----------
assay: folding stability dG unfold from trypsin proteolysis; higher = more stable

Residue Sequence: SAGMKAYNIKELKIEKIEKKGNKIKIKISGKGKFYFKTFSNGSAIIYIKKTNKAYYIDSNGKIVYIKDTSAG [r5_348_TrMRF]
folding stability dG unfold (kcal/mol): 1.75
//
Residue Sequence: SAGGSAGGSASLPEKLAQEAKEKILKENPDVEVTEIVVTKLPPEKYTVTIKTPDGKTETIPLSAGGSAGGSA [r18_423_JUSTAS]
folding stability dG unfold (kcal/mol): -0.00229
//
Residue Sequence: SAGGSAGGSKKKLKLVIKLKKGEKAPTAEELKKKLEELGFEIKDIKVVEKDGELYVVLEIELKSAGGSAGGS [r12_1052_TrROS_Hall]
folding stability dG unfold (kcal/mol): 2.67
//
Residue Sequence: SAGGPTIRLLVLPNKAEEVAEAIKKEFGAEVKILRVEPYPLPGPDGKVLKPVYLVEIEVKVKDPRLPLSAGG [r13_943_TrMRF]
folding stability dG unfold (kcal/mol): 1.17
//
Residue Sequence: SAGGLAPVYKTEDGVYLITPYNPETGELLETIPISEEDIEELSKEYGRDLTIEEIVKKLGYETEITVASAGG [r13_836_TrMRF]
folding stability dG unfold (kcal/mol): 0.786
//
Residue Sequence: SAGGSAGGSMKTITVPPEVLAALPLEEIVERNTSPDEEVEVEFVEEPGPVTVIIDTKKKPEHHSAGGSAGGS [r12_716_JUSTAS]
folding stability dG unfold (kcal/mol): -0.95
//
Residue Sequence: SAGGSASVKVEITEIKSSNPESSSNKIDIPVKVYDPETGKEVLSVEEIAKKIEEENPGKPVGYVPESAGGSA [r2_27_JUSTAS]
folding stability dG unfold (kcal/mol): 0.293
//
Residue Sequence: SAPLKIDLDIEPIPPGDKVRFNARITYPDGHPIRIPFEIYVPPDEIVIKFPIQDPKNGEPIAPLTFVIKSAG [r14_670_TrROS]
folding stability dG unfold (kcal/mol): 1.53
//
Residue Sequence: SAGGSAGGSMTIVIPKKTLEKMKPETIKKLLELAKELNTTITMNENAITIPVGKGTEEALKALSAGGSAGGS [r12_945_TrMRF]
folding stability dG unfold (kcal/mol): 1.5
//
Residue Sequence: SAGGSAGGSMPVKVITTISRETVPLPNGDPGARYTVTTTVTTDSTVVSTTTTTFSSEAELAAASAGGSAGGS [r12_461_JUSTAS]
folding stability dG unfold (kcal/mol): 1.08
//
Residue Sequence: SAGKLKPGDPVKIKIEIERDPGNGMVRVTYKIEFKDGMYVTMIIPPNGPIHVEIFNPDDGKEREETIPLSAG [r5_55_TrROS]
folding stability dG unfold (kcal/mol): 2.15
//
Residue Sequence: SAGGGSMEVVKEEVSEEVEVLPNGTVLTTKTITYKTPDGKEYTETVLERVDPVTGKREVIEKKTYPSSAGGS [r16_50_JUSTAS]
folding stability dG unfold (kcal/mol): 1.59
//
Residue Sequence: SAGMKKVKIETTEFREFEGGEREIVMKVYKPDGSEVATVVLPFPPDLSEEEMRERAEAEAKKLAEELGLSAG [r5_697_JUSTAS]
folding stability dG unfold (kcal/mol): 0.581
//
Residue Sequence: SAGTLVLVIEVPLEDVTPEQAEEIAEEAARFLREAGLPEGIEVEDVRVERLPDGRLLVLLPMRILEDESAGG [r19_87_TrMRF]
folding stability dG unfold (kcal/mol): 1.97
//
Residue Sequence: SAGGKKHYLVKVKATLTDKNGKKIAEVEFIFHFESPEELEEALKSIPSKYITEVKILSIEEIPEEEFSAGGS [r16_677_TrMRF]
folding stability dG unfold (kcal/mol): 3.36
//
Residue Sequence: SAGTAKELAELLPGATVEVDEETGTVTVTVELDGYTVRIEIRVDPETGEIVEIRITVTNPDGEEREFELSAG [r5_367_TrROS_Hall]
folding stability dG unfold (kcal/mol): 3.01
//
Residue Sequence: SAGGSPPLPLKITKITDTRYERNPDGQGWVKIEIRLPENGKPITIPVQADSPEQAEYAVKEALKKFSAGGSA [r2_248_TrROS]
folding stability dG unfold (kcal/mol): -0.315
//
Residue Sequence: SAGGSAGGSAGGPVFTPVGAGDEDTVTTETLPDGSPVLRYTVPGTGVVEVALPDGTLLAESAGGSAGGSAGG [r11_601_JUSTAS]
folding stability dG unfold (kcal/mol): -0.722
//
Residue Sequence: SAGGSELKPGDLVEVKVTVEFDEETGKATVEVEFNGKKLTVEVELEENQPPTVEVTLLVRIDKIEPSAGGSA [r2_113_TrROS_Hall]
folding stability dG unfold (kcal/mol): 2.36
//
Residue Sequence: SAGGSAGGSAGKEIHIPFPDGDTPEQAKKFAKEIADMLAQKNGKPIKVDKIEIIPPEQWPSAGGSAGGSAGG [r17_68_TrROS]
folding stability dG unfold (kcal/mol): -0.546
//
Residue Sequence: SAGGSAGGSMVLIIVPPSKPELAEEKAKELAEKGEIKEYEIKTVSSEEEAEKLAKNYEKVILESAGGSAGGS [r12_679_JUSTAS]
folding stability dG unfold (kcal/mol): -0.171
//
Residue Sequence: SAGGSALPPDQRLVVIDLGREPGVTPDEPVEVPEELIEKIKKENPNVKLVEVKHEGDKVTLYIAIKSAGGSA [r2_383_JUSTAS]
folding stability dG unfold (kcal/mol): -0.0124
//
Residue Sequence: SAGGSAGGGMTPEEARALAEAAGYEDVEVTVLSRDPENNVTVVEVTARAPGGGGAASVGTYTAPSAGGSAGG [r6_699_JUSTAS]
folding stability dG unfold (kcal/mol): -0.77

----------
test: folding stability dG unfold from chymotrypsin proteolysis; higher = more stable
Mark met for reported folding stability dG unfold of 2 kcal/mol or greater; mark not met for anything smaller.

Residue Sequence: SAGGSAGGSEKKPPEVTVVIKLPKGTSLEELLAALPPGAKAEIVEVVKVDEEKNEVYVKIRLTSAGGSAGGS [r12_469_TrROS_Hall]
Label Class: met
--
Residue Sequence: SAGGSGEVRPLELEFTLPNGAKIKITLHVYPDGTVKVEARIEFGGEYLELRFEFEGEKVPLDFPDFGSAGGS [r16_523_TrMRF]
Label Class: met
--
Residue Sequence: SAGGSAPSPEVPLWRFEAPGASGGVALIEGYPGGELRVVFFTDDGRPVELTFPVVVLPPAPLEELFSAGGSA [r15_478_TrMRF]
Label Class: not met
--
Residue Sequence: SAGGSAGGSGVTIPIWYKMDPGQPVPTAEEIQNIINELGFPIKDIKVQYHPDNGYVRAEITVKSAGGSAGGS [r12_1052_TrROS]
Label Class: not met
--
Residue Sequence: SAGGPKVVRIRYTMPPDQARDFIEELFGRPMSADDIADKLPPGFKVGIRAHPNPNGHVTFEIWIKLPDSAGG [r13_869_TrROS]
Label Class: met
--
Residue Sequence: SAGGSAGGWIPVEELAKEFGFSPDFIEQLMKNGYKIEYEYHEPGWVRLSVENPDNGKKREITFPSAGGSAGG [r6_969_TrROS]
Label Class: met
--
Residue Sequence: DTVTIVVEGMSEEEVLEKARAAAEELAKEGKTVEIVVKLSPEALKKAGVEKVEEVEDEETGLLVIKVEVKPS [r1_467_TrROS_Hall]
Label Class: not met
--
Residue Sequence: SAGGPDELELVIVFPAEALGTGEGGEPYTAEDIAEAIKKELPKDEVEVEIAEIDEETGEIVVTVKVPSAGGS [r16_284_TrMRF]
Label Class: not met
--
Residue Sequence: SAGGSAGGSAGGSGPPLRTEERVEEVTLPNGERLLVETTTLTDPVTGETTVSRSIRLPLSAGGSAGGSAGGS [r4_445_JUSTAS]
Label Class: not met
--
Residue Sequence: SAGKEKEVKEVTIKIKIYVTNKNGEKKEITIEVKAKNKEDLLEALKKLGLSVEELKEKFPNIKIVEIEPSAG [r5_430_TrROS_Hall]
Label Class: met
--
Residue Sequence: SAGGSAGGSAGGGSSVITTTETDPANGLLTTTTTTINGSETVPSSTVSPVPPPPPPSTLSAGGSAGGSAGGS [r10_354_JUSTAS]
Label Class: not met
--
Residue Sequence: SAGGSAGGSAMRINIKLPGVETESVEVDPEKGMITARLKFPEGRKVEISFFPDGNVKIHPVSAGGSAGGSAG [r3_348_TrROS]
Label Class: not met
--
Residue Sequence: SAGGSAGGSSTATFTLSRLPDGTYRLTLYDPSTNKVTTEEVPASRPDEYSAVTVSSDGTVTTASAGGSAGGS [r20_11_JUSTAS]
Label Class: not met
--
Residue Sequence: SAGGSAGGSAMPIKYLFPKDKSLEDILDEIIKKTGKPKSEIKNIKLEEIDDEEGFYVAYVESAGGSAGGSAG [r3_26_TrMRF]
Label Class: not met
--
Residue Sequence: SAGGMEEIRELLREGKIDEVVERLKELGYEDVKITPIPDKPVVKIEVVRYDPVTGKPTKFTLTIPLEPSAGG [r13_359_TrMRF]
Label Class: met
--
Residue Sequence: SAGGSAGGSAGGMKIKNAEIVEVKEENGKKTLLVKNKETGKYYKITIDDNKITIEEVKVPSAGGSAGGSAGG [r7_940_TrROS_Hall]
Label Class: met
--
Residue Sequence: SAMKVEIVEVKKNEDGSEEITIKIVVPDDKDMTPEELAALLKKEFGVDEVKVEVVDENGYKVITITIKRSAG [r14_228_TrROS_Hall]
Label Class: met
--
Residue Sequence: SAGGSAKPKITITVTYDKETNTVTVTITFPDGTTLTITVEAETEEEAKKAAKKLVEELLKKLEELESAGGSA [r15_477_TrROS_Hall]
Label Class: met
--
Residue Sequence: SAGGSAMTPQTLTLPDGTQVTVYYDPSTGKYTITTTTTTPTAQGTGPTTTTTKTVDSEEELLAYLSSAGGSA [r15_31_JUSTAS]
Label Class: met
--
Residue Sequence: SAGGSAGGSEKVIVVPSEEALKALEDAGIEVKKIEVFTETVTYYYPPGFPPVTETRTYLLVEVSAGGSAGGS [r12_78_TrROS_Hall]
Label Class: met
--
Residue Sequence: SAGGDLIERVAKELMEKFPMKPGEPRPITIEIPYPDGYRIKVDIPVRVNPDNGEFRFKFDIKEIEPWSAGGS [r16_634_TrROS]
Label Class: not met
